biological target: FimH (Escherichia coli)
Sequence (P08191 22-300): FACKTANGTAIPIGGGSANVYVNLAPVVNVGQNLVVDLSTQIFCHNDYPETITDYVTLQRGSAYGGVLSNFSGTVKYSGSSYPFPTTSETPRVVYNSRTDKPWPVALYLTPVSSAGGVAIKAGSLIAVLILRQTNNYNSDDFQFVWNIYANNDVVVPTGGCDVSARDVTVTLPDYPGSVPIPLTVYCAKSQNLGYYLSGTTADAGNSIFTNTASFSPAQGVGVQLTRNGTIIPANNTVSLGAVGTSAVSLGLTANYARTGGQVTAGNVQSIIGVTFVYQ
Sequence (P31697 37-241, further chain): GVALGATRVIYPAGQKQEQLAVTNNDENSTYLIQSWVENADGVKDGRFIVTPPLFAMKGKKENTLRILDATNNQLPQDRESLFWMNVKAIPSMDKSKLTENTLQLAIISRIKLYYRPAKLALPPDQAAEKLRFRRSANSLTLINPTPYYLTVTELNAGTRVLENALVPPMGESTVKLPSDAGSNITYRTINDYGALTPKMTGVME
Sequence (P08190 24-167, further chain): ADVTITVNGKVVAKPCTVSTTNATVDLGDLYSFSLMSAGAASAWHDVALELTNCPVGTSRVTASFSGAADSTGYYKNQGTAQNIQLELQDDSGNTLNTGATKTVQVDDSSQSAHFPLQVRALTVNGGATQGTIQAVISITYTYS
measure: IC50 (µM)
Answers are plain numbers, in µM.

Quick one: IC50 of O=C(CSc1nnc(-c2ccc(S(=O)(=O)N3CCCC3)cc2)o1)Nc1ccc(Cl)cc1 [AL1] ? 286
